test: Cytotoxicity, SRB method, HepG2; assay type: cell-based, human; conditions: human, HepG2 (hepatocellular) cells
IC50 reference

CCC(=O)OC1C2(O)C(OC(=O)CC(C)C)C3(C)CC24OC2(C)OC15C1CC(=O)OC(C6=CC(O)OC6=O)C1(C)CCC5(O2)C4(C)C3CC(=O)OC (stereo not drawn) :: 99.4 µM
CCC(=O)OC1C2(O)C(OC(=O)C=CC(C)C)C3(C)CC24OC2(C)OC15C1CC(=O)OC(C6=CC(O)OC6=O)C1(C)CCC5(O2)C4(C)C3CC(=O)OC (stereo not drawn) :: 69.4 µM

IC50 lookup needed for O=c1[nH]cc(F)c(=O)[nH]1 [5-Fluorouracil, 5-fluorouracil, reference compound] , thanks.
30.5 µM
